test: Single-dose pharmacokinetics, safety and tolerability of 10-minute intravenous infusion in healthy volunteers; type: in vivo, human; details: human, plasma, 6 ug/kg; 6 μg/kg iv over 10 minutes; read-out: T1/2, mean (SD)
ATTRIBUTE_MEASURED: half-life

Sure, the documented half-life for Nc1nc(N/N=C/C2CCCCC2)nc2c1ncn2[C@@H]1O[C@H](CO)[C@@H](O)[C@H]1O (stereo in doubt) is 14.9 min

###

experiment: Single-dose pharmacokinetics, safety and tolerability of 10-minute intravenous infusion in healthy volunteers; format: in vivo, human; conditions: human, plasma, 4 ug/kg; 4 μg/kg iv over 10 minutes; read-out: AUClast, mean (SD) (converted)
ATTRIBUTE_MEASURED: AUC(0-t)

Sure, the documented AUC(0-t) for Nc1nc(N/N=C/C2CCCCC2)nc2c1ncn2[C@@H]1O[C@H](CO)[C@@H](O)[C@H]1O (stereo in doubt) is 1.93 ng·h/mL
